B1: TPR t1 (parent)
chain: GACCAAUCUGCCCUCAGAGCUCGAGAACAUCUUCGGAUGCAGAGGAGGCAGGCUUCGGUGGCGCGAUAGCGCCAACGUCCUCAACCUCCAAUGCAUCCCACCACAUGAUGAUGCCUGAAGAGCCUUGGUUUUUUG

Variants of: B1
method.notes: polymerase ribozyme fitness, log enrichment relative to wild type (log ratio); higher = more active; in vitro selection for triplet polymerase activity
assay.readout: polymerase ribozyme fitness (log ratio)

Lab note: each variant below needs its polymerase ribozyme fitness (log ratio) filled in.
1. GACCAAUAUGCCCUCAGAUCUCGAGAACAUCUUCGGAUGCAGAUGAGGCAGGCUUCGGUGGCGCGAUAGCGCCAACGUCCUCAACCUCCAAUGCAUUCCACCACAUGAUGAUGCCUGAAGAGCCUUGGUUUUUUG
2. GGCCCAUCUGCCCUCAGAGCUCGAGAACAUCUUCGGAUGCAGAGGAGGCAGGCUUCGGUAGCGCGAUAGCGCCUACGUCCUCAACUUCCAAUGCAUCCCACCACAUGAUGAUGCCUGAAGAGCCUUGGUUUUUUU

[-3.97, -1.91]

For the 6 variants below, give their polymerase ribozyme fitness (log ratio) values.
1. GACCAAUCUGUCCUCAGAGCUCGAGAACAUCUUCGGAUGCAGAGGAGGCAGGUUUCGGUGGCGCGAUAGCGCCAACGUCCUCAACCUCCAAUGGAUCCCACCACAUGAUGAUGCCUGAAGAGGCUUGGUUUUUUG
2. GACCAAUAUGCCCUCAGAGCUCGAGAACAUCUUCGGAUGCAGUGGAGGCAGGCUUCGGUGGCGCGAUAGCGCCAACGUCCUCAACCUCCAAUGCAUCCCACCACAUGAUGAUGCCUGAAGAGCCUUGGUUUUUUG
3. GACCAAUCUGCCCUCAGAGCUCGAGAACAUCUUCGGAUGCAGAGGAGGCAGACUUCGGUGGCGCGAUAGCGUCAACGUCCUCAACCUCCAAUGCAUCCCACCACAUGAUGAUGCCUGAAGAGCCAUGCUUUUUUG
4. GACCAAUCUGCCCUCAGAGCUCGAGAACAUCUUCGGAUGCAGAGGAGGCAGGCUUCGGUGGCGCGAUAGCGCCAACGUCCUCAACCUCCAAUGCAUCCCACCAAAUGAUGAUGCCUCAAGAGCCUUGGUUCUUUG
5. GACCAAUCUGCCCUCAGAGCUCGAGAACAUCUUCGGAUGCAGAGGAGGCAGGUUUCGGUGGCGCGAUAGCACCAACGUCCUCAACCUCCAAUGCAUCCCACCACAUGAUGAUGCCUGAAGAGCCUUGGUUUUUUG
6. GACUAAUCUGCCCUCAGAGCUCGAGAACAUCUUCGGAUGCAGAGGAGGCAGGCUUCGGUGGCGCGAUAGCGCCAACGUCCUCAACCUCCAAUGCAUGCCACCACAUGAUGAUGCCUGAAGAGCCUUGGUUUUUUG

-1.5
-1.01
-3.74
-4.93
-0.671
-3.97

Provide the reported polymerase ribozyme fitness (log ratio) of each entry below, same order.
1. GACCAAUCUGCCCUCAGAGCUCGAGAACAUCUUCGGAUGCAGAGGAGGCAGGCUUCGGUGGCGCGAUAGCGCCAACGUCCUCAACCUCCAAUGCAUCCCACCACAUGAUAAUGCCUGAAGAGCCUUAGUUUUUCG
2. GACCAAUCUGCCCUCAGAGCUCGAGAACAUCUUCGGAUGCAGAAGAGGCUGGCUUCGGUUGCGCGAUAGCGCCAACGUCCUCAACCUCCAAUGCAUCCCACCACAUGAUGAUGCCUGAAGAGCCUUGGUUUCUUG
3. GACCAUUCUGCCCUCAGAGCUCGAGAACAUCUUGGGAUGCAGAGGAGGCAGGCUUCGGUGGCGCGAUAGCGCCAACGUCCUCAACCACCAAUGCAUCCCACCACAUGAUGAUGCCUGAAAAGCCUUGGUUUUUUG
4. GACCAAUCUGCCCUCAGAGCUCGAGAACAUCUUCGGAUGCAGAGGAGGCAGGCUUCGGUGGCGCGAUAGCGCCAACGUCCUCAACCUUCAAUGCAUCCCACCACAAGAUGAUGGCUGAAGAGCCUUGGUUUUUUG
5. GACCAAUCUGCCCUCAGAGCUCGAGAACAUCUUCGGAUGCAGAGGAGGCAGGCUUCGGUGACGCGAUAGCGCCAACGCCCUCAACCUCCAAUGCCUCCCACCACAUGAUGAUGCCUGAAGAGACUUGGUUUUUUG
6. GACCAAUCUGCCCUCAGAGCUCGAGAACAUCUUCGGAUGUAGAGGAGGCAGGCUUCGGUGGCGCGAUAGCGCCAACGUCCUCAACCUCCAAUGCAUCCCACCACAUGAUGAUGCCUAAAGAGCCUUGGUUUUUUG
7. GACCAAUCUGUCCUCAGAGCUCGAGAACAUCUUCGGAUGCAGAGGAGGCAGGUUUCGGUGGCGCGAUAGCGCCAACGUCCUCAACCUCCAAUGCAUCCCACCACAUGAUAAUGCCUGAAGAGCCUUGGAUUUUUG
8. GACCAAUCUGCCCUCAGAGCUCGAGAACAUCUUAGGAUGCAGAGUAGGCAGGCUUCGGUGGCGCGAUAGCGCCAACGUCCUCAACCUCCAAUGCAUCCCACCACAUGAUGAUGCCUGAAGAGCCUUGGUUUUUUG

1: -3.29; 2: -2.38; 3: -3.94; 4: -5.05; 5: 0.138; 6: -1.87; 7: -3.35; 8: -4.49
